Parameter: Delta HR. Scope: all listed entries.
System: Rattus norvegicus
Test: Bradycardic activity was evaluated in an anesthetized rat model as percent heart rate(beats/min) reduction 20 min after iv injection of 5 mg/kg
Type: functional
The answer is to be given in %; state only the numeric part.

[[record]]
smiles_representation = "COc1cc2c(cc1OC)CC(=O)N(CCCN(C)CCc1csc3cccc(OC)c13)CC2"
unit_symbol = "%"
measurement = -24


Ask | May I ask what Delta HR has been recorded for COc1cc2c(cc1OC)CC(=O)N(CCCN(C)CCc1cncc3cc(OC)c(OC)cc13)CC2 ?
Reply | -5

Ask | Report Delta HR for COc1ccc2c(CCN(C)CCCN3CCc4cc(OC)c(OC)cc4CC3=O)csc2c1 please.
Reply | -60

Ask | Can you look up the measured Delta HR of COc1cc2c(cc1OC)CC(=O)N(CCCN(C)CCc1c[nH]c3ccccc13)CC2 for me?
Reply | -36

Ask | I'd like to know its Delta HR. The compound in question is COc1cc2c(cc1OC)CC(=O)N(CCCN(C)CCc1c[nH]c3c(C)cccc13)CC2
Reply | -44
